Data origin, for the record: paper PMC10307035

experiment: ROS generation measurement with DMA trap in DMSO; format: physicochemical; conditions: 465–480 nm, 30 mW/cm^2, 10 min
ENDPOINT_NAME: ROS generation, DMA trap, under blue light

>>> df
                                        mol                 result
0  O=C(NCCCCO)c1ccc(-c2ccc3c4cccc5cccc(c6cccc2c63)c54)s1  significant bleaching
1  CC(C)(C)C(=O)OCn1c(=O)c(C#Cc2ccc3c4cccc5cccc(c6cccc2c63)c54)cn(CC(=O)N(CCO)CCO)c1=O  significant bleaching
2  O=c1[nH]c(=O)n([C@H]2C[C@H](O)[C@@H](CO)O2)cc1C#Cc1ccc2c3cccc4cccc(c5cccc1c52)c43  significant bleaching
